Tested on: 276233-004-R-J1-PDC complex spheroid viability;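 also: spheroids exposed to drugs for seven days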
Experiment: Anticancer human tumor 276233-004-R-J1-PDC patient-derived colon adenocarcinoma cell line growth inhibition [GQUAD]
Details: curve of first compound; second compound 1 µM
From the text: DNA G-quadruplex Stabilizer Agents in Combinations in Complex Spheroids A high-throughput screen of multi-cell type tumor spheroids was designed to identify active combinations of DNA G-quadruplex stabilizer agents and targeted small molecules. […] Compounds. […] If the clinical Cmax for an agent had not been determined, the highest concentration tested was 10 microM. […]
pIC50: −log10 of the molar value.
# pIC50 values compiled below

Answered examples (2):
MOLECULE | RESULT
COc1cc(C2c3cc4c(cc3C(OC3OC5COC(C)OC5C(O)C3O)C3COC(=O)C23)OCO4)cc(OC)c1O (stereo not drawn) + Cc1[nH]c2ccc(F)cc2c1-c1nc2c3cccnc3c3ncccc3c2[nH]1 | < 5.00
CCCS(=O)(=O)Nc1ccc(F)c(C(=O)c2c[nH]c3ncc(-c4ccc(Cl)cc4)cc23)c1F + Cc1[nH]c2ccc(F)cc2c1-c1nc2c3cccnc3c3ncccc3c2[nH]1 | > 7.50

Prompt: Please tell me: pIC50 of C=CCn1c(=O)c2cnc(Nc3ccc(N4CCN(C)CC4)cc3)nc2n1-c1cccc(C(C)(C)O)n1 + Cc1[nH]c2ccc(F)cc2c1-c1nc2c3cccnc3c3ncccc3c2[nH]1 , system 276233-004-R-J1-PDC complex spheroid viability?;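 also: spheroids exposed to drugs for seven days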
Completion: 6.98
